# Assay Procedure: NCI Yeast Anticancer Drug Screen. Data for the bub3 strain (AID 167)
# Measurement Parameters: S. cerevisiae bub3 mutant strain, at 50.0 µM, stronger effect = higher value
About 79,000 compounds went through this panel and 15% of them were active in at least one assay; those are over-represented in the sample as a whole. The source made the active and inactive calls. Cut-off read from the data, not from the text of the source: active = growth inhibition above about 70%; inactive = the rest.

{"Compound": "CC12CC(C/C1=N/O)C(C)(C)C2 (stereo not given)", "growth inhibition": "-7.65% (inactive)"}
{"Compound": "COc1cccc(N2CCN(CC(O)COc3ccc(N)cc3)CC2)c1 (stereo not given)", "growth inhibition": "25.1% (inactive)"}
{"Compound": "O=C(CCCc1ccccc1)NO", "growth inhibition": "10.8% (inactive)"}
{"Compound": "O=[N+]([O-])c1ccc(S(=O)(=O)SC(F)(F)F)cc1", "growth inhibition": "-3.25% (inactive)"}
{"Compound": "CC1CC2(CCC1OCc1ccccc1)OCCO2 (stereo not given)", "growth inhibition": "13.3% (inactive)"}
{"Compound": "Cc1ccccc1NS(=O)(=O)c1c(N)ncn1C", "growth inhibition": "-0.65% (inactive)"}
{"Compound": "O=Cc1ccc2ccocc1-2", "growth inhibition": "-20.7% (inactive)"}
{"Compound": "Cc1cc(C)c(N)c(C)n1", "growth inhibition": "1.1% (inactive)"}
{"Compound": "CC(=O)OC1CCC2(C)C(CCC3C2CCC2(C)C(C(C)=O)CCC32)C1 (stereo not given)", "growth inhibition": "10.4% (inactive)"}
{"Compound": "COc1ccc(C(=O)C(c2ccccc2)c2ccccc2)cc1", "growth inhibition": "9.25% (inactive)"}
{"Compound": "Cc1c(C)c(C)c(Br)c(C)c1C", "growth inhibition": "1.15% (inactive)"}
{"Compound": "COc1cc2c(c3oc(=O)cc(CCC(=O)O)c13)C1CC(=O)OC1O2 (stereo not given)", "growth inhibition": "-10.7% (inactive)"}
{"Compound": "Cc1ccc2c(CC(=O)O)cc(=O)oc2c1", "growth inhibition": "-0.3% (inactive)"}
{"Compound": "COc1cc2nc3n(c(=O)c2cc1OC)CCCCC3", "growth inhibition": "28% (inactive)"}
{"Compound": "CCCCCc1nc2c(c(=O)n(C)c(=O)n2C)n1C", "growth inhibition": "6% (inactive)"}
{"Compound": "COc1ccc(CSC(=S)Nc2ccc(C)c(Cl)c2)cc1", "growth inhibition": "-3.35% (inactive)"}
{"Compound": "CCCC(CO)OC(=O)Nc1ccc(-c2ccccc2)cc1 (stereo not given)", "growth inhibition": "27.4% (inactive)"}
{"Compound": "COC(=O)c1[nH]c(=O)c(C#N)c(C(=O)OC)c1C(=O)c1cccnc1", "growth inhibition": "-17.4% (inactive)"}
{"Compound": "Cc1ccc(N=C=Nc2ccc(C)cc2)cc1", "growth inhibition": "2.85% (inactive)"}
{"Compound": "Cc1nc(C(=O)O)c(C(=O)O)[nH]1", "growth inhibition": "-7.75% (inactive)"}
{"Compound": "OCC1OC(O)C(N=Cc2ccc3c(c2)OCO3)C(O)C1O (stereo not given)", "growth inhibition": "-20.6% (inactive)"}
{"Compound": "O=C1/C(=C/c2ccc3c(c2)OCO3)SC2C=Nc3ccccc3N12 (stereo not given)", "growth inhibition": "2.5% (inactive)"}
{"Compound": "NC1CCCCC1N.O=S(=O)([O-])CCCNC1CCCCC1.O=S(=O)([O-])CCCNC1CCCCC1.[Pt+4]", "growth inhibition": "-21.1% (inactive)"}
{"Compound": "COC(=O)C(Cc1nc2ccccc2[nH]c1=O)/C(=N\\NC(C)(C)C)C(=O)Nc1c(C)cc(Br)cc1C (stereo not given)", "growth inhibition": "3.7% (inactive)"}
{"Compound": "Cc1cc(C)c(NC(=O)NC2CCCCC2)cc1C", "growth inhibition": "10.2% (inactive)"}

---

# Assay Procedure: NCI Yeast Anticancer Drug Screen. Data for the mec2-1 strain (AID 157)
# Measurement Parameters: S. cerevisiae mec2-1 strain, at 50.0 µM, stronger effect = higher value
About 79,000 compounds went through this panel and 15% of them were active in at least one assay; those are over-represented in the sample as a whole.

{"Compound": "CC(=O)CC(=O)Nc1ccccc1C", "Units Of Measure": "%", "growth inhibition": 5.95}
{"Compound": "Cc1ccc(C)c(I)c1", "Units Of Measure": "%", "growth inhibition": -3.55}
{"Compound": "O=C([O-])c1ccc(C(=O)[O-])cc1.O=C([O-])c1ccc(C(=O)[O-])cc1.[Mo+2].[Mo+2]", "Units Of Measure": "%", "growth inhibition": 18.1}
{"Compound": "CCOc1cc2c(cnc3c4cc(OC)c(OC)cc4ccc23)cc1OC", "Units Of Measure": "%", "growth inhibition": -15.2}
{"Compound": "COc1cccc(C2c3cc4c(cc3OC(N3CCCCC3)C2C)OCO4)c1O (configuration not stated)", "Units Of Measure": "%", "growth inhibition": -31.1}
{"Compound": "CC(=O)N(CN1C(=O)CCC1C(=O)O)c1cccc(O)c1 (configuration not stated)", "Units Of Measure": "%", "growth inhibition": 9}
{"Compound": "O=C(Nc1ccccc1-c1ccccc1)c1ccccc1", "Units Of Measure": "%", "growth inhibition": -11.5}
{"Compound": "CC(=O)[CH-]C(=O)c1ccccc1.CC(=O)[CH-]C(=O)c1ccccc1.CC[C@H](CCC(C)[C@H]1CCC2[C@@H]3CC=C4C[C@@H]([O-])CC[C@]4(C)C3CC[C@@]21C)C(C)C.CC[C@H](CCC(C)[C@H]1CCC2[C@@H]3CC=C4C[C@@H]([O-])CC[C@]4(C)C3CC[C@@]21C)C(C)C.Cl.[Ti+4] (some centres not stated)", "Units Of Measure": "%", "growth inhibition": 3.9}
{"Compound": "Cc1ccc(C(=O)/C=C\\c2ccc(Cl)c(Cl)c2)cc1", "Units Of Measure": "%", "growth inhibition": -5.8}
{"Compound": "O=S(=O)(Nc1cccc(Br)c1)N1CCCCC1", "Units Of Measure": "%", "growth inhibition": 10}
{"Compound": "CC(=O)Oc1ccc2ccccc2c1CN(C(C)=O)c1ccc(C)cc1", "Units Of Measure": "%", "growth inhibition": -22.7}
{"Compound": "c1ccc(CN2COc3ccc4c5c(ccc4c3C2)OCN(Cc2ccccc2)C5)cc1", "Units Of Measure": "%", "growth inhibition": -5.45}
{"Compound": "CS(=O)(=O)OCC1COCC1COS(C)(=O)=O (configuration not stated)", "Units Of Measure": "%", "growth inhibition": -6.3}
{"Compound": "CC(=O)OCCOc1ccc(C(C)(C)C)cc1", "Units Of Measure": "%", "growth inhibition": -18.4}
{"Compound": "COC(=O)C1OC1C(=O)OC (configuration not stated)", "Units Of Measure": "%", "growth inhibition": -26.5}
{"Compound": "O=C(Nn1c(=S)[nH][nH]c1=S)c1ccccc1", "Units Of Measure": "%", "growth inhibition": -4.05}
{"Compound": "C1COCCN1.C1COCCN1.N.N.[Cl-].[Pt+2]", "Units Of Measure": "%", "growth inhibition": -5.4}
{"Compound": "O=C(c1ccccc1)C1C(c2ccccc2)N1C(=O)c1ccccc1 (configuration not stated)", "Units Of Measure": "%", "growth inhibition": 16.4}
{"Compound": "NC(=O)c1cc(Br)ccc1O", "Units Of Measure": "%", "growth inhibition": -12.7}
{"Compound": "CSc1nc(-c2ccccc2)c(C(=O)NC(C)CN2CCCCC2)s1 (configuration not stated)", "Units Of Measure": "%", "growth inhibition": 5.15}
{"Compound": "ON(C(=S)Nc1ccccc1)c1ccccc1", "Units Of Measure": "%", "growth inhibition": 12.8}
{"Compound": "COc1ccc(OCc2nc3cc(C(F)(F)F)ccc3nc2-c2ccccc2)cc1", "Units Of Measure": "%", "growth inhibition": 3.45}

---

Let's look at some molecules and their measured growth inhibition.
# Assay Procedure: NCI Yeast Anticancer Drug Screen. Data for the bub3 strain (AID 167)
# Measurement Parameters: S. cerevisiae bub3 mutant strain, at 50.0 µM, stronger effect = higher value
The panel holds about 79,000 compounds, 15% with a hit somewhere; the sample as a whole holds those more often.

{"Molecule": "COc1cc(C(C)Cl)ccc1OC(=O)c1ccccc1 (configuration not stated)", "growth inhibition, %": 12.2}
{"Molecule": "C(=C\\C1OCCO1)/c1ccccc1", "growth inhibition, %": 18.1}
{"Molecule": "C=CCn1c(=O)n(CC=C)c(=O)n(CC=C)c1=O", "growth inhibition, %": -10.3}
{"Molecule": "Cc1c2c(C#N)nccc2c(C)c2c1c1ccccc1n2Cc1ccccc1", "growth inhibition, %": -28.7}
{"Molecule": "CCCCCCCCCCCCCCCCSc1ccncc1NN=O", "growth inhibition, %": -3.8}
{"Molecule": "CCCC(=O)OCc1ccc(Cl)cc1Cl", "growth inhibition, %": 0}
{"Molecule": "COC(=O)c1ccc(C(=O)OC)c2nc3cc(C)c(C)cc3nc12", "growth inhibition, %": 5.35}
{"Molecule": "CC(=O)N(C(C)=O)n1c(Cc2ccc(Cl)cc2)n[nH]c1=O", "growth inhibition, %": -30.9}
{"Molecule": "CO/C=C/CCCO", "growth inhibition, %": -3.55}
{"Molecule": "O=C(NNC(=O)c1ccc([N+](=O)[O-])cc1)c1ccccc1", "growth inhibition, %": -13.4}
{"Molecule": "Cc1ccc(-c2cc(-c3ccco3)c(C#N)c(=O)[nH]2)cc1", "growth inhibition, %": -10}
{"Molecule": "O=C(O)C1CCCN1/N=C/c1cccc([N+](=O)[O-])c1 (configuration not stated)", "growth inhibition, %": 24.6}
